# maps each entry to its EC50
# testSystem: CFTR ΔF508 mutant (Homo sapiens, UniProt P13569, DEL508-508)
# Construct: expressed in transfected cells; host or cells: CFBE41o- (adenoviral transduction)
# Sequence (P13569 with tags, fused parts or gaps DEL508-508): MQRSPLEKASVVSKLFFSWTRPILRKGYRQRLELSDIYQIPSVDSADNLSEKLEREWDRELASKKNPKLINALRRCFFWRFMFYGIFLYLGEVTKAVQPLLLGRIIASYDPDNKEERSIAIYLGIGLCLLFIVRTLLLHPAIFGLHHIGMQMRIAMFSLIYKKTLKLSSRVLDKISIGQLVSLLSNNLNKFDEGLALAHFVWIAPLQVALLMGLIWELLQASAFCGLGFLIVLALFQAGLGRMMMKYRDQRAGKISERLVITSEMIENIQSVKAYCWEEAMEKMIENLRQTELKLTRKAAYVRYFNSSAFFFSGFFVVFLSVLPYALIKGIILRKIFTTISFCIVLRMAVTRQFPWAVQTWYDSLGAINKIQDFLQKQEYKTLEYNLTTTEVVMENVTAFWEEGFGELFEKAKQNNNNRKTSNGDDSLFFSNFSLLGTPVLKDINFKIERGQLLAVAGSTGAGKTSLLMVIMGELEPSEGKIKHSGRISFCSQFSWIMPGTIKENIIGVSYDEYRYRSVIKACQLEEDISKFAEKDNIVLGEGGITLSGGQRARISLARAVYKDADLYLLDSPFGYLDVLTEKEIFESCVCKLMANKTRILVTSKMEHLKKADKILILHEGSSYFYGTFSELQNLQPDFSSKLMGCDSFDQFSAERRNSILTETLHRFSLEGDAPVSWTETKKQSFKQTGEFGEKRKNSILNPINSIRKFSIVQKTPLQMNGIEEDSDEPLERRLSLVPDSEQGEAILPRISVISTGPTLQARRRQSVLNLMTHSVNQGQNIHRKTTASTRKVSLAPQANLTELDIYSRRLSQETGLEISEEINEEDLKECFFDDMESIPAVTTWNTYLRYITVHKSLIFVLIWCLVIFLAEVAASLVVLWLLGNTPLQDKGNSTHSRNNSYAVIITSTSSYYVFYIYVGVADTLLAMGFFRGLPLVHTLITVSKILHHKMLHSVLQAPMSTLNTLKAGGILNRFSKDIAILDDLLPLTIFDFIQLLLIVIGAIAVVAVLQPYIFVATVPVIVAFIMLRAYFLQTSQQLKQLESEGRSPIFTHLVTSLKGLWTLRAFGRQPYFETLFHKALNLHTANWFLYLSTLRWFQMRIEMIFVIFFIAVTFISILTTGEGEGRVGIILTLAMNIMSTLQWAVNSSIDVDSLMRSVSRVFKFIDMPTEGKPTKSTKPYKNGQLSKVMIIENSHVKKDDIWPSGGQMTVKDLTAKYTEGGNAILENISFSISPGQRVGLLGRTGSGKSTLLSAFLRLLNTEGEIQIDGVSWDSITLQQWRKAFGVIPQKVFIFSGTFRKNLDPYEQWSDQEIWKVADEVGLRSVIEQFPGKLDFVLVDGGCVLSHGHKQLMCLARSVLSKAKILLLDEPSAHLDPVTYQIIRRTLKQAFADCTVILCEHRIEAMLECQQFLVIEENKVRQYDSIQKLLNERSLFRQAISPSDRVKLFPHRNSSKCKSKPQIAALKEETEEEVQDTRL
# assayExplanation: YFP-halide influx assay for the CFTR-ΔF508 mutation (384 well, CFBE41o- cells, FDSS/μCell)
# Assay type: cell-based
# runConditions: forskolin 10.67 μM, fluorescence after 36 seconds, read-out: EC50 measured by YFP-halide influx assay for the CFTR-ΔF508
Field: numeric (nM). Do not append units.

As a guide, the following entries are already answered.
>>> readoutvalue("CC1(C)Cc2c(sc(NC(=O)c3ccc(F)cc3F)c2C(N)=O)C(C)(C)O1")
27.3
>>> readoutvalue("COCc1cc(C(=O)Nc2sc3c(c2C(N)=O)CC(C)(C)OC3(C)C)n[nH]1")
15.3
>>> readoutvalue("CC(C)(C)CC(O)C(=O)Nc1sc2c(c1C(N)=O)CC(C)(C)OC2(C)C (single isomer, unassigned) [Compound 109]")
4.32
>>> readoutvalue("Cc1noc(C)c1C(=O)Nc1sc2c(c1C(N)=O)CC(C)(C)OC2(C)C")
144
>>> readoutvalue("CC(C)C(O)C(=O)Nc1sc2c(c1C(N)=O)CC(C)(C)OC2(C)C (single isomer, unassigned) [Compound 51]")
92.5

Request: API: value(readout=EC50, system=CFTR ΔF508 mutant (Homo sapiens, UniProt P13569, DEL508-508)) for record Cn1nccc1C(=O)Nc1sc2c(c1C(N)=O)CC(C)(C)OC2(C)C
Result: 121

Request: API: value(readout=EC50, system=CFTR ΔF508 mutant (Homo sapiens, UniProt P13569, DEL508-508)) for record Cc1cnc(C(=O)Nc2sc3c(c2C(N)=O)CC(C)(C)OC3(C)C)cn1
Result: 99.5

Request: API: value(readout=EC50, system=CFTR ΔF508 mutant (Homo sapiens, UniProt P13569, DEL508-508)) for record CC1(C)Cc2c(sc(NC(=O)c3ccccc3O)c2C(N)=O)C(C)(C)O1
Result: 6.46

====

# maps each entry to its EC50
# testSystem: CFTR ΔF508 mutant (Homo sapiens, UniProt P13569, DEL508-508)
# Construct: expressed in transfected cells; host or cells: CFBE41o- (adenoviral transduction)
# assayExplanation: YFP-halide influx assay for the CFTR-ΔF508 mutation (96 well, CFBE41o- cells)
# Format: cell-based
# runConditions: compounds of the invention, 96 well, forskolin 10.67 μM, read-out: EC50 measured by YFP-halide influx assay for the CFTR-ΔF508
Field: numeric (µM). Do not append units.

>>> readoutvalue("CC1(C)Cc2c(sc(NC(=O)c3cc(C(F)(F)F)[nH]n3)c2C(N)=O)C(C)(C)O1 [Compound 15]")
0.00756
>>> readoutvalue("COCc1cc(C(=O)Nc2sc3c(c2C(N)=O)CC(C)(C)OC3(C)C)n[nH]1 [Compound 42]")
0.0122
>>> readoutvalue("CC1(C)Cc2c(sc(NC(=O)C(C)(C)CO)c2C(N)=O)C(C)(C)O1 [Compound 10]")
0.121
>>> readoutvalue("CC1(C)Cc2c(sc(NC(=O)c3[nH]nc4c3COC4)c2C(N)=O)C(C)(C)O1 [Compound 37]")
0.016
>>> readoutvalue("CC(C)C(O)C(=O)Nc1sc2c(c1C(N)=O)CC(C)(C)OC2(C)C (centres unmarked) [Compound 39]")
0.006

Request: API: value(readout=EC50, system=CFTR ΔF508 mutant (Homo sapiens, UniProt P13569, DEL508-508)) for record CC1(C)Cc2c(sc(NC(=O)C(O)C(C)(C)C)c2C(N)=O)C(C)(C)O1 (centres unmarked) [Compound 38]
Result: 0.005

Request: API: value(readout=EC50, system=CFTR ΔF508 mutant (Homo sapiens, UniProt P13569, DEL508-508)) for record CC1(C)Cc2c(sc(NC(=O)c3ccn[nH]3)c2C(N)=O)C(C)(C)O1 [Compound 2]
Result: 0.01

Request: API: value(readout=EC50, system=CFTR ΔF508 mutant (Homo sapiens, UniProt P13569, DEL508-508)) for record CC1(C)Cc2c(sc(NC(=O)C3(CO)CCC3)c2C(N)=O)C(C)(C)O1 [Compound 40]
Result: 0.032
